Cited source for all entries: patent US11452717B2

study.target: NAMPT enzyme (Homo sapiens (Human), UniProt P43490)
Sequence (P43490 whole entry, species assumed): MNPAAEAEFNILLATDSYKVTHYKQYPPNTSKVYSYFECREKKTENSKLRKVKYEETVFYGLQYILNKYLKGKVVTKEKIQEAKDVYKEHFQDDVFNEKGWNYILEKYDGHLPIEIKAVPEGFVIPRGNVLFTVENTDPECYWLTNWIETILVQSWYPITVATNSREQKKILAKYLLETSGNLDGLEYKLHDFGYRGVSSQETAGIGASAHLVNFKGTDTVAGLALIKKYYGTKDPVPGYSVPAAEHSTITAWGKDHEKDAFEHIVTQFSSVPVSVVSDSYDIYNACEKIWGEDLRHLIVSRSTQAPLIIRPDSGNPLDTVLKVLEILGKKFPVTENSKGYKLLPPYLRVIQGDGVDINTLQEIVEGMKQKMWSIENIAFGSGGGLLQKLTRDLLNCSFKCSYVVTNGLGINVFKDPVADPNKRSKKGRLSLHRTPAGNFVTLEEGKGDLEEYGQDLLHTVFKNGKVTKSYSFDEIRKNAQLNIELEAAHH
assay: Enzyme Assay and NMN Detection (NAMPT reaction, fluorescence detection of NMN)
Format: biochemical
stated.conditions: Table B-1; NAMPT activation, NMN formation
Experimental: NAMPT reaction was performed in 50 mM HEPES, pH 7.5, containing 5 mM MgCl2, 0.1% Prionex, 0.005% Tween 20, and 1 mM TCEP at room temperature in Greiner 384-well black polypropylene plates. […] The fluorescence (ex380/em460) was measured following another short incubation and 30 min incubation. The increased concentration of NMN was determined from a calibration curve obtained at the time of experiment.
outcome.measure: EC50

Worked cases, EC50 given:
| chemical.structure | EC50 |
| --- | --- |
| CCOC(=O)c1ccc(NC(=O)NCc2c[nH]cn2)cc1 | > 20000 nM |
| CCOC(=O)c1ccc(NC(=O)NCc2cn(C)cn2)cc1 | > 20000 nM |
| O=C(NCc1cn[nH]c1)Nc1ccc(S(=O)(=O)N2CC3CCC(C2)O3)cc1 | 100 to 2000 nM |

Look at this molecule and give its reported EC50. O=C(NCc1cnco1)Nc1ccc(NS(=O)(=O)c2ccccc2)cc1
100 to 2000 nM
